target: SVOP-FLAG (Rattus norvegicus); construct: full length (548 residues), C-terminal FLAG tag (DYKDDDK) kept; expressed in HEK293, purified on anti-FLAG M2 gel; test: competition with 8-azido-ATP[γ] biotin photoaffinity labeling, western blot; assay type: binding; details: read-out: half maximum inhibition concentration
Sequence (Q9Z2I7 whole entry): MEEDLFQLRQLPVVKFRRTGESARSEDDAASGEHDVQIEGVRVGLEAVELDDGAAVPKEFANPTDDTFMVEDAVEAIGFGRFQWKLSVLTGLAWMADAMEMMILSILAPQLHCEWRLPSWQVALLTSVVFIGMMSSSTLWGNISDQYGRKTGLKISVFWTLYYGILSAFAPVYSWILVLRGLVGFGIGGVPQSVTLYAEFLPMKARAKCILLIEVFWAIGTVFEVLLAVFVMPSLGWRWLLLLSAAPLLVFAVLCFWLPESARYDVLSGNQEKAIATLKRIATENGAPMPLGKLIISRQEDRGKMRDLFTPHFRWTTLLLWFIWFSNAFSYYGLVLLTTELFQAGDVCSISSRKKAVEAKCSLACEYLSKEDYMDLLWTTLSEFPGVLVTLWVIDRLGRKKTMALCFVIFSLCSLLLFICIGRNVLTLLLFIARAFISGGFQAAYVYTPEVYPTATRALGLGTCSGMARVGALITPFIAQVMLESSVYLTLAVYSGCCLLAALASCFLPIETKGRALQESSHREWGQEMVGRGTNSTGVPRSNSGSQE

# structure string, IC50
records = [
    ("Nc1ncnc2c1ncn2[C@@H]1O[C@H](COP(=O)(O)OP(=O)(O)OP(=O)(O)O)[C@@H](O)[C@H]1O", "~750 µM"),
]
